Origin of measurements: patent US5945436A

# Test system: Cercosporidium personatum
# TEST_DESCRIPTION: Fungal germination and growth, treated disc on agar, scored (CER PER)
# Type: cell-based
# Design: key: 100: Complete inhibition of germination and growth.; 80: Nearly complete inhibition but some growth.; 50: Partial inhibition of growth or, early complete inhibition but later growth begins.; 20: Some inhibition of growth, but not significant.; 0: No inhibition of growth
# MEASUREMENT_SETUP: disc dipped in 500 mg/l, 29° C., numerical score 0-100, spore suspension
READOUT_LABEL: CER PER inhibition score

• Cc1ccc(CCC(C#N)(CCC(F)(F)F)c2cccnc2)cc1 (stereo not drawn) [Compound 80] = 0
• C=CCC(C#N)(CCc1ccc(F)cc1)c1cccnc1 (stereo not drawn) [Compound 9] = 100
• CC(C)CCC(C#N)(CCc1ccc(F)cc1)c1cccnc1 (stereo not drawn) [Compound 49] = 0
• N#CC(CCc1ccccc1)(CCc1ccccc1)c1cccnc1 [A, reference compound] = 0
• CCCCC(C#N)(CCc1ccc(OCCC)cc1)c1cccnc1 (stereo not drawn) [Compound 69] = 0
• CCCCCC(C#N)(CCc1ccc(F)cc1)c1cccnc1 (stereo not drawn) [Compound 60] = 0
• N#CC(CCCF)(CCc1ccc(F)cc1)c1cccnc1 (stereo not drawn) [Compound 64] = 0
• CCCC(C#N)(CCc1ccccc1C(F)(F)F)c1cccnc1 (stereo not drawn) [Compound 72] = 0
• C=C(Cl)CC(C#N)(CCc1ccc(F)cc1)c1cccnc1 (stereo not drawn) [Compound 65] = 0
• CCCCOc1ccc(CCC(C#N)(CCC)c2cccnc2)cc1 (stereo not drawn) [Compound 57] = 0
• COCC(C#N)(CCc1ccccc1)c1cccnc1 (stereo not drawn) [Compound 6] = 0
• N#CC(CCc1ccc(F)cc1)(CC(F)(F)F)c1cccnc1 (stereo not drawn) [Compound 52] = 100

----------
# System: Pythium ultimum
# TEST_DESCRIPTION: Fungal growth inhibition, treated disc on agar (PYT ULT)
# Assay type: cell-based
# MEASUREMENT_SETUP: disc dipped in 500 mg/l, 29° C.
READOUT_LABEL: Percent Growth Inhibition, PYT ULT (%)

* CC(C)CCC(C#N)(CCc1ccc(F)cc1)c1cccnc1 (stereo not drawn) [Compound 49] | 76
* C=CCC(C#N)(CCc1ccc(OC)cc1)c1ccccn1 (stereo not drawn) [Compound 28] | 10
* COc1ccc(CCC(C#N)(CC(C)C)c2ccccn2)cc1 (stereo not drawn) [Compound 29] | 0
* CCCCC(C#N)(CCc1ccc(OC)cc1)c1ccccn1 (stereo not drawn) [Compound 31] | 93
* N#CC(CCCc1ccc(Cl)cc1)(CC1CC1)c1ccccn1 (stereo not drawn) [Compound 32] | 0
* CCCCC(C#N)(CCc1ccc(OC)cc1)c1ccccn1 (stereo not drawn) [Compound 27] | 10

----------
# Test system: Erysiphe graminis
# TEST_DESCRIPTION: Powdery mildew in barley, foliar application (ERY GRA)
# Format: in vivo
# MEASUREMENT_SETUP: foliar, 1,000 mg/l, 8 days after inoculation
Here, each record is paired with measured Percent Reduction of Disease, ERY GRA data.
READOUT_LABEL: Percent Reduction of Disease, ERY GRA (%)

* CCCCC(C#N)(CCc1ccc(OC)cc1)c1ccccn1 (stereo not drawn) [Compound 27] | 90
* CCCCC(C#N)(CCc1ccc(OCC)cc1)c1cccnc1.Cl (stereo not drawn) | 92
* C=CCC(C#N)(CCc1ccc(OC)cc1)c1ccccn1 (stereo not drawn) | 90

----------
Quick list: Percent Reduction of Disease, BMS per entry.
# Test system: Erysiphe graminis
# TEST_DESCRIPTION: Powdery mildew of barley, systemic root uptake (BMS)
# Type: in vivo
# MEASUREMENT_SETUP: 45 ml of 250 mg/l, 8 days after inoculation
READOUT_LABEL: Percent Reduction of Disease, BMS (%)

• CCCC(C#N)(CCCc1ccc(Cl)cc1)c1cccnc1 (stereo not shown) = 40
• C=CCC(C#N)(CCc1ccc(C)cc1)c1cccnc1 (stereo not shown) = 40
• C#CCC(CCc1ccccc1)(C(N)=S)c1cccnc1 (stereo not shown) = 20
• N#CC(CCc1ccc(F)cc1)(CCC(F)(F)F)c1cccnc1 (stereo not shown) = 100
• COCC(C#N)(CCc1ccc(F)cc1)c1cccnc1 (stereo not shown) = 90
• CCCCCC(C#N)(CCc1ccc(F)cc1)c1cccnc1 (stereo not shown) = 75
• CCCCCC(CCc1ccc(F)cc1)(C(N)=O)c1cccnc1 (stereo not shown) = 20
• CCCCC(C#N)(CCc1ccccc1C(F)(F)F)c1cccnc1 (stereo not shown) = 100
• CCCCC(C#N)(CCCc1ccc(Cl)cc1)c1cccnc1 (stereo not shown) = 40
• C=C(Cl)CC(C#N)(CCc1ccc(F)cc1)c1cccnc1 (stereo not shown) = 0
• CC(C)=CCC(C#N)(CCc1ccccc1)c1cccnc1 (stereo not shown) = 45
• C#CCC(C#N)(CCc1ccc(OC)cc1)c1cccnc1 (stereo not shown) = 0
• CCCCC(C#N)(CCc1ccc(OC)cc1)c1ccccn1 (stereo not shown) [Compound 31] = 0
• CCCC(C#N)(CCCc1ccccc1OC)c1cccnc1 (stereo not shown) = 100
• C=CCC(C#N)(CCc1ccc(F)cc1)c1cccnc1 (stereo not shown) = 40
• CC(C)=CCC(C#N)(CCc1ccc(F)cc1)c1cccnc1 (stereo not shown) = 0
• CCCCC(C#N)(Cc1ccc(C(C)(C)C)cc1)c1cccnc1 (stereo not shown) = 35
• Cc1ccc(CCC(C#N)(CCCC(F)(F)F)c2cccnc2)cc1 (stereo not shown) = 92
• CCCCC(C#N)(CCc1ccc(C)cc1)c1cccnc1 (stereo not shown) = 0
• CCCCC(C#N)(CCc1ccc(OC)cc1)c1ccccn1 (stereo not shown) [Compound 27] = 0
• CCCCC(C#N)(CCCc1ccc(OC)cc1)c1cccnc1 (stereo not shown) = 0
• C=CCC(C#N)(CCc1ccc(OC)cc1)c1ccccn1 (stereo not shown) = 0
• COc1ccc(CCC(C#N)(CC(C)C)c2ccccn2)cc1 (stereo not shown) = 0
• N#CC(CCc1ccc(F)cc1)(CC(F)(F)F)c1cccnc1 (stereo not shown) = 100
• C=CCC(C#N)(CCc1ccccc1F)c1cccnc1 (stereo not shown) = 100
• Cc1ccc(CCC(C#N)(CCC(F)(F)F)c2cccnc2)cc1 (stereo not shown) = 100
• CC(C)CCC(C#N)(CCc1ccc(F)cc1)c1cccnc1 (stereo not shown) [Compound 55] = 75
• Cc1ccc(CCC(C#N)(CCCF)c2cccnc2)cc1 (stereo not shown) = 0
